molecular target: T1, AFP158/HLA-A*02:01 complex (human); experiment: SPR, crude scFv captured, pMHC analyte;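 further: complex injected at several concentrations over the chip, association phase then running buffer for dissociation, KD derived from on- and off-rates computed from both curves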
T1 construct: flowed as analyte in SPR
attribute.measured: koff (s⁻¹)
Numbers only, in s⁻¹.

# example entries with known answers
>  <binder>
AS170036 VL1VH1-56N98I108S (scFv, also called 54-AS170036 VL1VH1-56N98I108S) scFv: QSALTQPRSVSGSPGQSVTISCAGTSSDVGSENYVSWYQQHPGKAPKLMIYQVNKRASGVPDRFSGSKSGNTASLTISGLQAEDEADYYCASYRSSDINIVFGGGTKLTVLGGGGSGGGGSGGGGSEVQLVESGGGLVQPGGSLRLSCAASGFTFSSYAMSWVRQAPGKGLEWVSTINSGTNSPYYADSVKGRFTISRDNSKNTLYLQMNSLRAEDTAVYYCAKNFFDGSWFLSPPAMDYWGQGTLVTVSSHHHHHH

>  <units>
s⁻¹

>  <koff>
0.0019

$$$$
>  <binder>
AS170036 VL1VH1-57K98I108D (scFv, also called 71-AS170036 VL1VH1-57K98I108D) scFv: QSALTQPRSVSGSPGQSVTISCAGTSSDVGSENYVSWYQQHPGKAPKLMIYQVNKRASGVPDRFSGSKSGNTASLTISGLQAEDEADYYCASYRSSDINIVFGGGTKLTVLGGGGSGGGGSGGGGSEVQLVESGGGLVQPGGSLRLSCAASGFTFSSYAMSWVRQAPGKGLEWVSTINSGTGKPYYADSVKGRFTISRDNSKNTLYLQMNSLRAEDTAVYYCAKNFFDGSWFLDPPAMDYWGQGTLVTVSSHHHHHH

>  <units>
s⁻¹

>  <koff>
0.0012

$$$$
>  <binder>
AS170036 VL1VH1-57H98I108D (scFv, also called 62-AS170036 VL1VH1-57H98I108D) scFv: QSALTQPRSVSGSPGQSVTISCAGTSSDVGSENYVSWYQQHPGKAPKLMIYQVNKRASGVPDRFSGSKSGNTASLTISGLQAEDEADYYCASYRSSDINIVFGGGTKLTVLGGGGSGGGGSGGGGSEVQLVESGGGLVQPGGSLRLSCAASGFTFSSYAMSWVRQAPGKGLEWVSTINSGTGHPYYADSVKGRFTISRDNSKNTLYLQMNSLRAEDTAVYYCAKNFFDGSWFLDPPAMDYWGQGTLVTVSSHHHHHH

>  <units>
s⁻¹

>  <koff>
0.0012

$$$$

For each listed entry, give its koff.
1. AS170036 VL1VH1-56Y98F108D (scFv, also called 41-AS170036 VL1VH1-56Y98F108D) scFv: QSALTQPRSVSGSPGQSVTISCAGTSSDVGSENYVSWYQQHPGKAPKLMIYQVNKRASGVPDRFSGSKSGNTASLTISGLQAEDEADYYCASYRSSDFNIVFGGGTKLTVLGGGGSGGGGSGGGGSEVQLVESGGGLVQPGGSLRLSCAASGFTFSSYAMSWVRQAPGKGLEWVSTINSGTYSPYYADSVKGRFTISRDNSKNTLYLQMNSLRAEDTAVYYCAKNFFDGSWFLDPPAMDYWGQGTLVTVSSHHHHHH
2. AS170036 VL1VH1-56Y98I108S (scFv, also called 45-AS170036 VL1VH1-56Y98I108S) scFv: QSALTQPRSVSGSPGQSVTISCAGTSSDVGSENYVSWYQQHPGKAPKLMIYQVNKRASGVPDRFSGSKSGNTASLTISGLQAEDEADYYCASYRSSDINIVFGGGTKLTVLGGGGSGGGGSGGGGSEVQLVESGGGLVQPGGSLRLSCAASGFTFSSYAMSWVRQAPGKGLEWVSTINSGTYSPYYADSVKGRFTISRDNSKNTLYLQMNSLRAEDTAVYYCAKNFFDGSWFLSPPAMDYWGQGTLVTVSSHHHHHH
3. AS170036 VL1VH1-57H98F108S (scFv, also called 60-AS170036 VL1VH1-57H98F108S) scFv: QSALTQPRSVSGSPGQSVTISCAGTSSDVGSENYVSWYQQHPGKAPKLMIYQVNKRASGVPDRFSGSKSGNTASLTISGLQAEDEADYYCASYRSSDFNIVFGGGTKLTVLGGGGSGGGGSGGGGSEVQLVESGGGLVQPGGSLRLSCAASGFTFSSYAMSWVRQAPGKGLEWVSTINSGTGHPYYADSVKGRFTISRDNSKNTLYLQMNSLRAEDTAVYYCAKNFFDGSWFLSPPAMDYWGQGTLVTVSSHHHHHH
4. AS170036 VL1VH1-57K98I108S (scFv, also called 72-AS170036 VL1VH1-57K98I108S) scFv: QSALTQPRSVSGSPGQSVTISCAGTSSDVGSENYVSWYQQHPGKAPKLMIYQVNKRASGVPDRFSGSKSGNTASLTISGLQAEDEADYYCASYRSSDINIVFGGGTKLTVLGGGGSGGGGSGGGGSEVQLVESGGGLVQPGGSLRLSCAASGFTFSSYAMSWVRQAPGKGLEWVSTINSGTGKPYYADSVKGRFTISRDNSKNTLYLQMNSLRAEDTAVYYCAKNFFDGSWFLSPPAMDYWGQGTLVTVSSHHHHHH
5. AS170036 VL1VH1-56Y98I108D (scFv, also called 44-AS170036 VL1VH1-56Y98I108D) scFv: QSALTQPRSVSGSPGQSVTISCAGTSSDVGSENYVSWYQQHPGKAPKLMIYQVNKRASGVPDRFSGSKSGNTASLTISGLQAEDEADYYCASYRSSDINIVFGGGTKLTVLGGGGSGGGGSGGGGSEVQLVESGGGLVQPGGSLRLSCAASGFTFSSYAMSWVRQAPGKGLEWVSTINSGTYSPYYADSVKGRFTISRDNSKNTLYLQMNSLRAEDTAVYYCAKNFFDGSWFLDPPAMDYWGQGTLVTVSSHHHHHH
6. AS170036 VL1VH1-56N98F108D (scFv, also called 50-AS170036 VL1VH1-56N98F108D) scFv: QSALTQPRSVSGSPGQSVTISCAGTSSDVGSENYVSWYQQHPGKAPKLMIYQVNKRASGVPDRFSGSKSGNTASLTISGLQAEDEADYYCASYRSSDFNIVFGGGTKLTVLGGGGSGGGGSGGGGSEVQLVESGGGLVQPGGSLRLSCAASGFTFSSYAMSWVRQAPGKGLEWVSTINSGTNSPYYADSVKGRFTISRDNSKNTLYLQMNSLRAEDTAVYYCAKNFFDGSWFLDPPAMDYWGQGTLVTVSSHHHHHH
7. AS170036 VL1VH1-57H98I108S (scFv, also called 63-AS170036 VL1VH1-57H98I108S) scFv: QSALTQPRSVSGSPGQSVTISCAGTSSDVGSENYVSWYQQHPGKAPKLMIYQVNKRASGVPDRFSGSKSGNTASLTISGLQAEDEADYYCASYRSSDINIVFGGGTKLTVLGGGGSGGGGSGGGGSEVQLVESGGGLVQPGGSLRLSCAASGFTFSSYAMSWVRQAPGKGLEWVSTINSGTGHPYYADSVKGRFTISRDNSKNTLYLQMNSLRAEDTAVYYCAKNFFDGSWFLSPPAMDYWGQGTLVTVSSHHHHHH

Ans:
[0.00054, 0.0005, 0.00068, 0.0013, 0.00038, 0.0019, 0.0014]
